Target: human MS4A4A (human, UniProt Q96JQ5 1-239)
Test: FACS, HEK293, supernatant
OBSERVED_PROPERTY: Human 4A:parental cell ratio (ratio)
Field: numeric (ratio). Do not append units.

# query: Human 4A:parental cell ratio of entry anti-MS4A4A antibody 4A-12 (antibody, V domains shown, murine hybridoma antibody) VH: QVQLQQSGAELAQPGASVKMSCKASGYTFSSYWMYWVKQGPGQGLEWIGYINPGTGYTEYNQKFKDKATLTADKSSSTAYMQLSSLTSEDSAVYYCARFYYGSPYYYAMDYWGQGTSVTVSS VL: DIVMTQSQKFMSTSVGDRVTFTCKASQSVDTDVAWYQQKPGQSPKLLIYSASNRYTGVPDRFTGSGSGTDFTLTISNVQSEDLADYFCHQYNSYPLTFGAGTKLELK 9.58

Cited source: patent US20230126400A1
